system: IL-2 stimulated pSTAT5 in Tall-1 T cells; assay: Cellular JAK3 potency assay: inhibition of IL-2 stimulated pSTAT5 in Tall-1 T cells; type: cell-based, human; conditions: Homo sapiens, TALL-1, IL-2 stimulated pSTAT5 in Tall-1 T cells; read-out: Tall-1 (pIC50) (converted)
The entries below come with measured IC50 values attached.

Illustrative cases are given below, each with its answer.
Query block: Quote IC50 reported for `CN(C)C/C=C/C(=O)N1CC(C#N)(COc2nc(-c3ccc(O)cc3)cc3[nH]ncc23)C1` please.
Result block: 31.6 to 200 nM

Query block: Specify reported IC50 for the compound shown: `C=CC(=O)N1CC(COc2cc(-c3ccc(O)c(Cl)c3)nc3[nH]ncc23)C1`
Result block: 31.6 to 200 nM

Query block: Given `C=CC(=O)N1CC[C@H](Oc2cc(-c3ccc(O)cc3)cc3[nH]nc(C)c23)C1` , respond with its IC50.
Result block: < 31.6 nM

Query block: Give reported IC50 value for `C=CC(=O)N1CC[C@H](Oc2cc(-c3ccc(O)c(Cl)c3)cc3[nH]nc(SC)c23)C1`
Result block: 31.6 to 200 nM

Query block: In one line, give reported IC50 of the entry `C=C(CN(C)C)C(=O)N1CC[C@H](Oc2cc(-c3ccc(O)cc3)cc3[nH]ncc23)C1` .
Result block: 31.6 to 200 nM

***
Query block: Could you please provide reported IC50 for `COC1(COc2cc(-c3ccc(O)c(Cl)c3)cc3[nH]ncc23)CN(C(=O)/C=C/CN(C)C)C1` ? Thanks!
Result block: < 31.6 nM
